test system: mouse brain membrane SH enzymes; type: biochemical; conditions: Table 1; 10 μM compound, mouse brain membrane proteome, FP-Rh
assay endpoint: Off-targets (10 μM)

Exercise: Name the recorded Off-targets (10 μM) of COc1ccccc1-c1ccc(-c2cn(C(=O)N3CCCCC3Cc3ccccc3)nn2)cc1 (centres unmarked) , assay system mouse brain membrane SH enzymes.
Key: MGLL

Exercise: # return Off-targets (10 μM) for COc1ccc(-c2ccc(-c3cn(C(=O)N4CCCCC4c4ccccc4)nn3)cc2)cc1 (centres unmarked) , test system: mouse brain membrane SH enzymes
Key: FAAH

Exercise: Look up mouse brain membrane SH enzymes data: Off-targets (10 μM) of O=C(c1ccc(-c2ccc(-c3cn(C(=O)N4CCCCC4Cc4ccccc4)nn3)cc2)cc1)N1CCCCC1 (centres unmarked) , then report it.
Key: none

Exercise: Quote Off-targets (10 μM) with test system mouse brain membrane SH enzymes for O=C(N1CCCCC1Cc1ccccc1)n1cc(-c2ccc(-c3cccc(CO)c3)cc2)nn1 (centres unmarked)
Key: none
